# target_desc: beta-Lactamase
# assay_overview: beta-Lactamase-inhibitory activity, producing strain Proteus vulgaris GN 4413
# Assay type: biochemical
Counter-ions that a name gives are not always drawn.
In this section, each of the compounds is paired with its reported beta-Lactamase-inhibitory activity [1D50].
Give just the numeric value; µg/mL need not be written.

Below, each entry is followed by its recorded beta-Lactamase-inhibitory activity [1D50] result.
compound	scale_unit	result_number
CC(=O)N/C=C\SC1=C(C(=O)O)N2C(=O)[C@@H](C(C)(C)OS(=O)(=O)O)[C@H]2C1 [Ih, disodium salt]	µg/mL	0.0038
CC(=O)N/C=C\[S@@+]([O-])C1=C(C(=O)O)N2C(=O)[C@@H](C(C)(C)OS(=O)(=O)O)[C@H]2C1 [Ib, disodium salt]	µg/mL	0.00055
CC(=O)N/C=C\[S@@+]([O-])C1=C(C(=O)[O-])N2C(=O)[C@@H](C(C)(C)O)[C@H]2C1.[Na+] [Ia]	µg/mL	0.00105

Attention now turns to another entry.
What beta-Lactamase-inhibitory activity [1D50] value was documented for this compound, CC(=O)N/C=C\SC1=C(C(=O)[O-])N2C(=O)[C@@H](C(C)(C)O)[C@H]2C1.[Na+] [Ig] ?
0.017
